target: SARS-CoV-2 spike protein on live virus, strain USA-WA1/2020 (SARS-CoV-2, WA01/2020 strain, UniProt P0DTC2 14-1273); test: cell-based or functional assay
metric-name: IC50, live virus micro-neutralization WA1/2020
Give the number first and the unit second.

Exam item: Item under review: antibody 2729 (antibody, V domains shown) VH: QVTLKESGPVLVKPTETLTLTCTVSGFSLSNARMGVSWIRQPPGKALEWLAHIFSNDEKSYSTYLKSRLTISKDSSKSQVVLTMTIMDPVDTATYYCARTAGRYSSRWGHYYYYMDVWGKGTTVTVSS VL: NFMLTQPHSVSESPGKTVTISCTGSNGSIASNFMQWYQQRPGSAPTIVIYEDNQRPSGVPDRFSGSIDGSSNSASLTISGLKTEDEADYYCQSYDSSDSDLGVFGGGTKLTVL . Reported IC50, live virus micro-neutralization WA1/2020?
Marked response: 0.272 nM

Exam item: Form field: reported IC50, live virus micro-neutralization WA1/2020 of antibody 980 (antibody, V domains shown) VH: QVQLVESGGGVVQPGRSLRLSCAASGFTFSRYGMHWVRQAPGKGLEWVALISSGGSNKYYADSVKGRFTISRDNSKNTLYLEMNSLRAEDTAVYYCAKDAIYDYIWGAYRENWFDPWGQGTLVTVSS VL: DIQMTQSPSSLSASVGDRVTITCRASQSISNYLNWYQQKPGKAPNLLIYAASSLQSGVPSRFSGSGSGTDFTLTISSLQPEDFATYYCQQTSSPPLTFGQGTKVEIK
Marked response: 0.0082 nM

Exam item: Which IC50, live virus micro-neutralization WA1/2020 value belongs to antibody 3091 (antibody, V domains shown) VH: QMQLVQSGPEVKKPGTSVKVSCKASGFTFSSSAVQWVRQARGQGLEWIGWIVVGSGNANYAQKLQERVSITRDMSTSTAYMELSSLRPEDTAVYYCAAPHCSRTICHDGFDMWGQGTMVTVSS VL: EIVLTQSPGTLSLSPGERATLSCRASQSVRSSYLAWYQQKPGQAPRLLMFVASSRATGIPDRFSGSGSGTDFTLTISRLEPEDFAVYYCQQYDTSPWTFGQGTKVEIK ?
Marked response: 0.055 nM

Exam item: Query (binder): antibody 2892 (antibody, V domains shown) VH: QVQLVQSGAEVKKPGSSVKVSCKASGDAFISYAISWVRQAPGQGLEWMGGIIPIFGTANYAQKFQGRVTISADESTSTAYMELSRLRSEDTAVYYCARGGPEPYGSGSGYTPRYNWFDPWGQGTLVTVSS VL: QSALTQPRSVSGSPGQSVTISCTGTSSDVGGYNYVSWYQQHPGKAPKFMIYDVNRRPSGVPDRFSGSKSGNTASLTISGLQAEDEADYYCCSYAGTYTWVFGGGTKLTVL ; field requested: IC50, live virus micro-neutralization WA1/2020
Marked response: 0.082 nM

Exam item: Endpoint output: IC50, live virus micro-neutralization WA1/2020 of antibody 2564 (antibody, V domains shown) VH: QVQLVQSGAEVKKPGSSVRVSCKASGGTFISYTFNWVRQAPGQGLEWMGRIIPIFGIVNYAQKFQGRVTIAADKSTSTAYMELSSLRSEDTAMYYCATATVDYDSGEEQSSFDPWGQGTLVTVSS VL: EIVLTQSPGTLSLSPGERATLSCRASQSVSSSYLAWYQQKAGQTPRLLIYAASSRATGVPDRFSGSGSGTDFTLTISRLEAEDFAVYYCQQSWTFGQGTKVEIK . Value?
Marked response: 0.0226 nM
